# Species: Canis familiaris
# test.protocol: Effective dose against Iliac vascular resistance (IVR)
# Type: functional
# condition.set: Canis lupus familiaris
measurement.type: ED30 (mg/kg)
Numeric answer only, unit mg/kg assumed.

Observe how each entry below is paired with its result.
• Cc1c(O)c(O)c(Cl)c2c1CCNCC2c1ccc(O)cc1.Cl (stereo unspecified) = 6.09
• Br.Oc1cc2c(c(Br)c1O)CCNCC2c1ccccc1 (stereo unspecified) = 6.08
• Br.Oc1cccc(C2CNCCc3c2cc(O)c(O)c3Cl)c1 (stereo unspecified) = 0.0119
• CS(=O)(=O)O.Oc1ccc(C2CNCCc3c2cc(O)c(O)c3Cl)cc1 (stereo unspecified) [FENOLDOPAM MESYLATE] = 1.82
• Br.Oc1ccc(C2CNCCc3c2cc(O)c(O)c3F)cc1 (stereo unspecified) = 6.06

Note to self: ED30 recorded for Br.Oc1cc2c(c(F)c1O)CCNCC2c1ccccc1 (stereo unspecified) was 54

Note to self: ED30 recorded for CS(=O)(=O)O.Cc1c(O)c(O)cc2c1CCNCC2c1ccc(O)cc1 (stereo unspecified) was 6.06

Note to self: ED30 recorded for Cl.Oc1ccc(C2CNCCc3c(Cl)c(O)c(O)c(Cl)c32)cc1 (stereo unspecified) was 6.2

Note to self: ED30 recorded for Cl.Oc1c(O)c(Cl)c2c(c1Cl)CCNCC2c1ccccc1 (stereo unspecified) was 6.08

Note to self: ED30 recorded for Oc1cc2c(cc1O)C(c1ccccc1)CNCC2 (stereo unspecified) was 0.735

Note to self: ED30 recorded for Br.Oc1ccc(C2CNCCc3c2cc(O)c(O)c3Br)cc1 (stereo unspecified) was 0.07

====

Entries and their measured inhibition follow.
# Species: Rattus norvegicus
# test.protocol: In vitro inhibition of dopamine stimulated production of [14C]cAMP from [14C]-ATP in homogenates of rat caudate at the concentration of 10 uM
# Assay type: functional
Numeric answer only, unit % assumed.

Observe how each entry below is paired with its result.
• Br.Oc1cc2c(c(F)c1O)CCNCC2c1ccccc1 (stereo not given) = 17
• Cc1c(O)c(O)c(Cl)c2c1CCNCC2c1ccc(O)cc1.Cl (stereo not given) = 29
• Br.CN1CCc2c(cc(O)c(O)c2F)C(c2ccc(O)cc2)C1 (stereo not given) = 55
• Br.Oc1ccc(C2CNCCc3c2cc(O)c(O)c3I)cc1 (stereo not given) = 55

Turning now to a further record.
Note to self: inhibition recorded for CS(=O)(=O)O.Cc1c(O)c(O)cc2c1CCNCC2c1ccc(O)cc1 (stereo not given) was 50

====

Entries and their measured ED30 follow.
# Organism: Canis familiaris
# test.protocol: Effective dose against Iliac vascular resistance (IVR)
# Format: functional
# condition.set: Canis lupus familiaris
Numeric answer only, unit mg/kg assumed.

Observe how each entry below is paired with its result.
- NCCc1ccc(O)c(O)c1: 0.151
- Br.Oc1cc2c(c(Cl)c1O)CCNCC2c1ccccc1 (stereo not drawn): 2.92

Turning now to a further record.
Note to self: ED30 recorded for Br.Oc1ccc(C2CNCCc3c2cc(O)c(O)c3I)cc1 (stereo not drawn) was 6.06
